test: soluble on expression in E. coli; label from the status in PepcDB or PDB records

| sequenceText | soluble on expression in E. coli |
| --- | --- |
| MAHHHHHHMHRASRIAAAPFKSVLRRHKHHPEGLPLYNEMSKQWLCREGERWWILDAKGEQLPRVAAVAAQYITGQHRPDFTPGMISGDHVIIVNIKDVVMVGDEWIRVPITWQTAYPGGKYRIRLTDMYERDPCMLMWWFLKDEVNRHFVRKLKTRVAPLEKAWLYEDSVHPHGEKNPRPLCWSDPVVRGWKYTDPQFIRRWKPNEFIT | not soluble |
| MGSDKIHHHHHHMSSDVRKALDPGTPYSRTLKQYSIDEKLAIISHAKNHGNRAAGREFNVAESSIREWRKNENKLIHNRDAAAARLNAQSSHSSGPARLNNMNNNNNNNHNHSKNNNIQYTQTVFPRRTPDDIVKHIQIAQITQLAMMKMDFTSLARIAPFLQAHQHQQQAQAKPDSISTASSVVGTPSSISSSSSTPPPSTSPVPTSSGSGRRKPRCPMKIVVAESNNPVNIEEIQENIDE | not soluble |
| MDTSLPSAILNNMVTATLILDDGLAIRYANPAAELLFSQSAKRIVEQSLSQLIQHASLDLALLTQPLQSGQSITDSDVTFVVDGRPLMLEVTVSPITWQRQLMLLVEMRKIDQQRRLTQELNQHAQQQAAKLLVRGLAHEIKNPLGGLRGAAQLLEKMLPDPSLTEYTHIIIEQADRLRALVDRLLGPQKPGK | not soluble |

----------
assay: soluble on expression in E. coli; label from the status in PepcDB or PDB records

| sequenceText | soluble on expression in E. coli |
| --- | --- |
| MLTSFGKTLRKLRIDHSERLLDMADKPGVSVAFLSSVEIGKKSVPVGMEEKIIEFYSLDKAMASLLKKEADACVERTSQSNLLIHLVVKLLACFLEI | not soluble |
| MGSDKIHHHHHHMKPNIITVILAAGASSRFHGAKMLAKVKGNQSLLARSIVSLNKVTATAGIKAPAVVLGAHLNDEIMAITATSHQIINPDWQQGLSSSVKHASQYAIEQQADALLLVLADQVAIDVDDYLHLIERYQQNGLTSCAFYRQDVGVPAIFLAKDFAVLMSIDGDKGAKSILKQHDKNNSLNIISMEQAQFDIDTPADLARWLDNKD | not soluble |
| MPIADTVTLNSGYEMPVIGYGTWQLPKNLAAERVRDALEAGYRHIDSALSFKNQEEVAAGIKDWCKIRKVRREELFLSSKIWNTYHSRNRCMQQIDEMLEIFETTYMDLIVIHWPFGWAEDEPPGERGLWPRGANGKMRYSDVDYLETWKALEDAHRSGKIRSIGLANFNIGQVEQVWTKGLIKPAVLQVEMNPFLDQEEIRQFCREKGIILTAFMLTGNPGSALYRKHEDPNLLYNETLQSIAKGHGKSVVQVLVRWAIDLRTTALVKSSESKRIRQNINIFKFRLTSQEIARIKALNIDFRILNPLLGNYDHPYFPWPHVQEEQLPQKVEEPDPENL | not soluble |
| MSNFISPVYEIKSIPIEKISPNDYNPNSVAPPEMKLLYDSIKSDGYTMPIVCYYDKEEDRYSIVDGFHRYRIMLDYSDIYERESGRLPVSVIDKSLDYRMASTIRHNRARGSHD | not soluble |
| MSKYWSNIVKKISPYVPGEQPKDKKYIKLNTNENPYPPSEKVLKAISAAVNESLRLYPDPACESLRNTLAKYYGIKASEVFVGNGSDELLAFSFMAFFNPGDTIIFPDITYSFYEVYSSMFSVNYRLIPLDDEFNVPVEEFFTENDGIILANPNAPTGKALPLQSIRKILEKNDDKVVIIDEAYVDFGARSSVPLIKEFENLLVIQTLSKSRALAGLRVGFALGSEQLIEGLDRVKNSINSYTLDRLALIGAEEAIKDHEYFCEIRDKIINTREWVSKKLSSMGFKVIESKANFIFISHPKINGRLLFEKYKENNILVRHFNSPRIDNFLRVSIGSDEEMNIFCEKTKEIIESLN | soluble |
| MLLEIKDLVYKASDRIILDHISLKVDKGESIAIIGPSGSGKSTFQKQICNLFSPTSGELYFKGKPYNDYDPEELRQRISYLMQQSDLFGETIEDNMIFPSLARNDKFDRKRAKQLIKDVGLGHYQLSSEVENMSGGERQRIAIARQLMYTPDILLLDESTSALDVNNKEKIENIIFKLADQGVAIMWITHSDDQSMRHFQKRITIVDGQISNTEELNQHE | soluble |
| WLRDVLDSEAFRHTQATLPMALGKDISGQPIVVDMAKMPHLLVAGQTGGGKSVGINTMILSLLFKLTPEQVRFIMIDPKVVELSVYNDIPHLLTPVVTDMKKAANALRWAVGEMERRYLLISHLQVRNIEGYNDKIDQASAMNFPIPDPTWRPADSIGQLPPPLTKLSYIVLIVDEFADLIMSAGKEVEEYIMRIAQKARAVGIHLILATQRPST | not soluble |
| MGSDKIHHHHHHMYLKGDFHIHTNASDGKYTPEKVLELAKTAGINILAITDHDTTSSVKKAIAVGNELGIKVLPGIELSTLKNGESIHILGYFRDISYENKDFQNFLTEMQNYRVWRAKKIVENLDTYFNIKLDYASILKEASNVIARPHIARAILAKGYNYTYEYIFNNILNKESPAYIPNKKVSVEEGIKLLKAANAVVVLAHPVLIKKTPIEDFLKLDFDGIEAIYPMNSESDTERFLSLAKIYNKLVTAGSDFHTDDSSDTKHGRIGEIYLDENNIDILLSK | not soluble |
| MSCQGPVCTNLGLKPGQRLTVKGIIAPNAKSFVMNLGKDSTHLGLHFNPRFDAHGDVNLIVCNSKKMEEWGTEQRETVFPFQKGAPIEITFSINPSDLTVHLPGHQFSFPNRLGLSVFDYFDTHGDFTLRSVSWE | soluble |
| MSLDKIRYGIMSTAQIVPRFVAGLRESAQAEVRGIASRRLENAQKMAKELAIPVAYGSYEELCKDETIDIIYIPTYNQGHYSAAKLALSQGKPVLLEKPFTLNAAEAEELFAIAQEQGVFLMEAQKSVFLPITQKVKATIQEGGLGEILWVQSVTAYPNVDHIPWFYSREAGGGALHGSGSYPLQYLQYVLGKEIQEVTGTATYQQGATDSQCNLALKFAEGTLGNIFINVGLKIPSEMTICGTKGQIVIPNFWKTDCAYYTDAQGNTVKWSEQFTSEFTYEINHVNQCLQDKKLTSPVMTKELTIATVKIVESFYQEWFDNEGHHHHHH | soluble |
| MGSDKIHHHHHHMDHLPPLRLLVTFEAISRHGSMRDAAQRLNVTQPAVSQALKALEDHVGVALFDRSVRPARLTDAGEMLSRAVREGLGRIAATLEDIRALHAIGERQVTVSCTLGMATYWLMPKLPMFYADYPELTVNVQAPATDLPVLSPGIDVALRYGRGGWREGRTEKLFAEVICPVGAPALVERLLAEGATLAEAPLIHVRNPHNDHWAGWEDYLQARGIQRPRGGGQIFNNYVQAAQAIYDGRGLMLGWRSITGQAERDGALRAWPDGALDLGTSYFVTMPTTPSQDTLLFVDWVRKAAATV | not soluble |
| EIKDTYNIGELSPGMTATFEGEVISALPIKEFKRADGSIGKLKSFIVRDETGSIRVTLWDNLTDIDVGRGDYVRVRGYIREGYYGGLECTANYVEILKKGEKIES | soluble |

----------
assay: soluble on expression in E. coli; label from the status in PepcDB or PDB records

| sequenceText | soluble on expression in E. coli |
| --- | --- |
| KQATMKNAALKQLTKDADEILHLIKVQLDNLTLPSCPLYEEVLDTQMFGLQKEVDFAVKLGLVDREDGKQIMLRLEKELSKLHEAFTLV | not soluble |
| MSGQSLTDRITAAQHSVTGSAVSKTVCKATTHEIMGPKKKHLDYLIQCTNEMNVNIPQLADSLFERTTNSSWVVVFKSLITTHHLMVYGNERFIQYLASRNTLFNLSNFLDKSGLQGYDMSTFIRRYSRYLNEKAVSYRQVAFDFTKVKRGADGVMRTMNTEKLLKTVPIIQNQMDALLDFNVNSNELTNGVINAAFMLLFKDAIRLFAAYNEGIINLLEKYFDMKKNQCKEGLDIYKKFLTRMTRISEFLKVAEQVGIDRGDIPDLSQAPSSLLDALEQHLASLEGKK | soluble |
| SLQTNKASTGLKTDQSFNNSLSESVKLKEIADIYPTNTNFLTGIGIVAGLAGKGDSIKQKDLIIKILEENNIINEIGSNNIESKNIALVNVSLQVKGNTIKGSKHKACVASILDSKDLTNGILLKTNLKNKEGEIIAIASGITQPNNKLKGSGYTIDSVIINENQNINHSYNIILKKGNYTLINRIHKILTSKKINNKIKSDSTIEIEAKNISLLEEIENIKIETNPKILIDKKNGIILASENAKIGTFTFSIEKDNQNIFLSKNNKTTIQVNSMKLNEFILKNSNNLSNKELIQIIQAAQKINKLNGELILEEIDGNQN | soluble |
| MSLESVKCIFERHPDFASKFRPKNRHMKSTYMTVLLGLIKTMCQLPEELTDDDLDEASVAVSYVENGGLRLDWLEKKLAEVKAKKKKVETGKARLQRAEEELQKLNQKCLEMKAFLEKENADVSEANVPLSFEDVVSMIPLPNLHAKNAGYLVNGEVKIVVEINDLEVIGKLDVSEESEETNQPLKKIKLDDNDAVSFDSLNETSPVKESIDVNGFQVLPSEGHHHHHH | soluble |
| MEQLTKCEVFRELKDLKGYGGVSLPEWVCTTFHTSGYDTQAIVQNNDSTEYGLFQINNKIWCKDDQNPHSSNICNISCDKFLDDDLTDDIVCVKKILDKVGINYWLAHKALCSEKLDQWLCEKL | soluble |
| MNNQTMTFTPEQLRKHAQEMLRHAEQLEKTGITKDAIRKDMVPALRELMQAKHRAQKAVDELVDCVAELETRVGKFEKLVQEALR | not soluble |
| GPGSMAKSSRSKWKKMHRRQRAQAEATNTVKRICLLNKKLKLTVKGGISAVPPQEPEKRFHFLNPVLDSRVPNTRKNLNNNYRAELNHVEYDYTKPLKLAPPKTNMYGKTDVDAPHPMTVMYETIDADTPLAGHALTKADMERLARRQAQQESEASAAVADAEKDASKEDGDNADDGPEEYVFGMEDAAPRRARGQHKTSAKKKGSVAPKALKGAASASVGASSSVSETGSSSRMLAAAAAAMTNEEEEADHRTRNGGVTAVNKIASMQTMRKKNGTMVSAGGASKMKKVGQLGGSSGTRVVSSGGKVARKDVGNAKSGSKR | soluble |
| MGHHHHHHSHMEQFEVIKQQKEIIEHGIELFNKKPKRGIQFLQEQGMLGTSVEDIAQFLHQEERLDSTQVGDFLGDSARFNKEVMYAYVDQLDFCEKEFVSALRTFLEGFRLPGEAQKIDRLMEKFAARYIECNQGQTLFASADTAYVLAYSIIMLTTDLHSPQVKNKMTKEQYIKMNRGINDSKDLPEEYLSSIYEEIEGKKIAMKETKELT | soluble |
| MDYKEIVFDVDNTLIDTEYAILHSLQDTIKQINRKIIPIKELSFALGITGEDALRYLKIEDITIALSMWDRNMEKYKNTVLVFKEIKEMLTEIIKLNIGIGIVTSKTHEEFRNDFLSFDIAPYFNTVVCSNDTLEHKPKAVPLLKYMELTKCQNNELLYIGDSIYDMQCAYRANVDFGLVKWGSGDRVSTVISFTTPLDLIRQLSVSSN | not soluble |
| MGSDKIHHHHHHQTQVIAHRGFWKTEGSAQNSIAALLKADSIGCYGSEFDVWLAADDQLVVNHDPTFKGKRMENSPSTALTAIKLDNGESLPTLAKYLKAAQPLHTRLILELKAHSTPLRETKAIEKIVALVKDMGLEERMEYITFSLHATKEFIRLAPEGTPVYYLDGNLSPKELKELGCAGPDYHYTVFRKHPEWIQECHDLGMKVNAWTVNKTDDMKWLIDRKVDFITTNEPVQLKNLLKK | not soluble |
| MGSDKIHHHHHHMEVKPFRPLIYRKEIDGMIAPPFDAITPKEEVELKRNKYNITYLTLPKGRDGIPHAKMLLQSWLENGVLIPMKEDVFIVLRQRFYVGDECINRYGLIAKVKVFPESGDVIPHERTFDMYVKERETLMDGISSQLEPIFLVTLKNDLPGYLKAITDGLKEDNTYFGPENVENFVYYINDKRKINKIISLLAEDKSIVADGHHRLQATKNIAARKSGGEREFWSYAMAYITSIHDPGVLVGGVNRVVSNKFRLDMNVLSKYFEINQVERLDETNINLFNGRLYSLKIRIPVYDNLIDASNDFILSKSASMNYTDIENEVIYTHDIYELMSLVNSGSYSFGIILPRWDKMKLIETLLSGRKLPQKSTYFYPKIPSGLAIDTALELRLS | not soluble |
| MYTFDTTDHKSPCCNFQWYIFRKQGESRIITCELFGVIVSLENRWDWLEFMIDDSLQLTAFRCPKRDKLGMETLLQLGDVAQVTGNWKLSNGAFLNATKIAIHNNPDVECKYWLQQIQKYKSKVCELEIPSDWIRRQQRAHNLKTDAVLSFSAQVSTAAATCWKLWKKHFNQGGKISLQRLWEVIQRENCPKMQELSSCRRNQIVQLLIHLGYLIPLSKEPETYVLLIDDILDKQVMQIFNQNIASKTLSLREVAYRLEEYFHVEEISLERVEESILRLAYKEKVEQV | not soluble |
